system: MCII cells; experiment: MCII MAST CELL TOXICITY ASSAY (XTT); assay type: cell-based, mouse; details: XTT formazan, 37° C. 4-12 hours; read-out: MCII Mast Cell Toxicity IC50
Endpoint Label: CC50

Prompt line: Request - read-out CC50 | tested on MCII cells | compound O=C(c1ccc2ccccc2c1)c1c(-c2ccc(O)cc2)sc2cc(O)ccc12 [Example 3]
Response line: > 10 µM

Prompt line: Request - read-out CC50 | tested on MCII cells | compound O=C(c1cccc2ccccc12)c1c(-c2ccc(O)cc2)sc2cc(O)ccc12 [Example 2]
Response line: > 10 µM

Prompt line: Request - read-out CC50 | tested on MCII cells | compound Oc1ccc(-c2cc3ccc(O)cc3s2)cc1 [Compound B]
Response line: < 10 µM

Prompt line: Request - read-out CC50 | tested on MCII cells | compound O=C(c1ccccc1)c1c(-c2ccc(O)cc2)sc2cc(O)ccc12 [Compound A]
Response line: 0.3 µM
